Measured values drawn from patent US20250161472A1 for this set.

- tested-target: T1, human ROR2 (receptor tyrosine kinase-like orphan receptor 2) (human, UniProt Q01974 34-403, limits assumed)
- T1 construct: Antigen of the ELISA, SPR and pH titration assays; also called hROR2
- T1 sequence (Q01974 34-403 limits assumed): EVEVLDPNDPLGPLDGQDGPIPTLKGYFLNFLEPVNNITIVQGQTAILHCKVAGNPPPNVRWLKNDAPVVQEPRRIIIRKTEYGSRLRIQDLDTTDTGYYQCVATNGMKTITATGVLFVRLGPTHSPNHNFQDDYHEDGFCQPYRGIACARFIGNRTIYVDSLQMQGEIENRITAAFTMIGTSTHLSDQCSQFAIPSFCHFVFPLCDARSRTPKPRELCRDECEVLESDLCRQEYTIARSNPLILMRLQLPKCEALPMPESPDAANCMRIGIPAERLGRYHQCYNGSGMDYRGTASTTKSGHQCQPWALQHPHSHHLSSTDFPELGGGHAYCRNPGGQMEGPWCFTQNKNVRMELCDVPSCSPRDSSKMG
- assay-text: affinity ELISA on human ROR2, pH 6.0
- Set-up: unit not given here
Would you mind sorting the entries by Affinity ELISA, pH 6.0 according to these classes? low = under 0.8, intermediate = from 0.8 up to 1, high = 1 and over

Check out these entries, answers already filled in.
{"columns": ["binder", "group"],
 "data": [
  ["HC-I051E (antibody, V domains shown, CPE single point mutant of parent VH 48.6-HC-WT) VH: EVQLQQSGPELVKPGASVKISCKTSGYTFTEYTMHWMKQSHRKSLEWIGGENTNNGGTGYNQKFKGKATLTVDKSSSTAYMELRSLTSEDSAVYFCARGSLYSYGNSYFDYWGQGTLVTVSS VL: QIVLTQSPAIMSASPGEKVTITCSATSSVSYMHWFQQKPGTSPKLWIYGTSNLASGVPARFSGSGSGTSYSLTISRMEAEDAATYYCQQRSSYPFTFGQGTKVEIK", "high"],
  ["HC-M034Y (antibody, V domains shown, CPE single point mutant of parent VH 48.6-HC-WT) VH: EVQLQQSGPELVKPGASVKISCKTSGYTFTEYTYHWMKQSHRKSLEWIGGINTNNGGTGYNQKFKGKATLTVDKSSSTAYMELRSLTSEDSAVYFCARGSLYSYGNSYFDYWGQGTLVTVSS VL: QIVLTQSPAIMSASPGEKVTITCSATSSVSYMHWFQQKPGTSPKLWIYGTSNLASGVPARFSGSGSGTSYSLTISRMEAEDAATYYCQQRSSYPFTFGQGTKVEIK", "intermediate"],
  ["HC-T033C (antibody, V domains shown, CPE single point mutant of parent VH 48.6-HC-WT) VH: EVQLQQSGPELVKPGASVKISCKTSGYTFTEYCMHWMKQSHRKSLEWIGGINTNNGGTGYNQKFKGKATLTVDKSSSTAYMELRSLTSEDSAVYFCARGSLYSYGNSYFDYWGQGTLVTVSS VL: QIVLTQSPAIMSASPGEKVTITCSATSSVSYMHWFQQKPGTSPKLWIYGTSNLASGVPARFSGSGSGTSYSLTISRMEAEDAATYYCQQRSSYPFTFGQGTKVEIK", "low"],
  ["HC-Y111T (antibody, V domains shown, CPE single point mutant of parent VH 48.6-HC-WT) VH: EVQLQQSGPELVKPGASVKISCKTSGYTFTEYTMHWMKQSHRKSLEWIGGINTNNGGTGYNQKFKGKATLTVDKSSSTAYMELRSLTSEDSAVYFCARGSLYSYGNSYFDTWGQGTLVTVSS VL: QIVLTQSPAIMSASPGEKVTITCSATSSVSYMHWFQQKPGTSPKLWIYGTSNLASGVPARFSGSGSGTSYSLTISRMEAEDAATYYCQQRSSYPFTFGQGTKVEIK", "high"],
  ["HC-F029E (antibody, V domains shown, CPE single point mutant of parent VH 48.6-HC-WT) VH: EVQLQQSGPELVKPGASVKISCKTSGYTETEYTMHWMKQSHRKSLEWIGGINTNNGGTGYNQKFKGKATLTVDKSSSTAYMELRSLTSEDSAVYFCARGSLYSYGNSYFDYWGQGTLVTVSS VL: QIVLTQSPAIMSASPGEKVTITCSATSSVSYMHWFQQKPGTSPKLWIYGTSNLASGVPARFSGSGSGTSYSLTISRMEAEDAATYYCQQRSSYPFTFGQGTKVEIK", "high"],
  ["HC-G050S (antibody, V domains shown, CPE single point mutant of parent VH 48.6-HC-WT) VH: EVQLQQSGPELVKPGASVKISCKTSGYTFTEYTMHWMKQSHRKSLEWIGSINTNNGGTGYNQKFKGKATLTVDKSSSTAYMELRSLTSEDSAVYFCARGSLYSYGNSYFDYWGQGTLVTVSS VL: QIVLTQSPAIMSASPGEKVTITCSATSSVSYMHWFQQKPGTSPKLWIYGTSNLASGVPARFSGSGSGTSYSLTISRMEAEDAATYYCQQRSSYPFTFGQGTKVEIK", "intermediate"],
  ["HC-Y111C (antibody, V domains shown, CPE single point mutant of parent VH 48.6-HC-WT) VH: EVQLQQSGPELVKPGASVKISCKTSGYTFTEYTMHWMKQSHRKSLEWIGGINTNNGGTGYNQKFKGKATLTVDKSSSTAYMELRSLTSEDSAVYFCARGSLYSYGNSYFDCWGQGTLVTVSS VL: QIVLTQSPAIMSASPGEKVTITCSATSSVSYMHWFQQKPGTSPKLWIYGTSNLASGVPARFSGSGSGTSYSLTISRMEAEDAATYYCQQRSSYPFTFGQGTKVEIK", "high"],
  ["HC-T053E (antibody, V domains shown, CPE single point mutant of parent VH 48.6-HC-WT) VH: EVQLQQSGPELVKPGASVKISCKTSGYTFTEYTMHWMKQSHRKSLEWIGGINENNGGTGYNQKFKGKATLTVDKSSSTAYMELRSLTSEDSAVYFCARGSLYSYGNSYFDYWGQGTLVTVSS VL: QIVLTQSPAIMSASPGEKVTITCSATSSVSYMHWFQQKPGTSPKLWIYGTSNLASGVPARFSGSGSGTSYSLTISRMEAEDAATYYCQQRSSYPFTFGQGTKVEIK", "low"]
]}

Asked: Assign a category based on measured Affinity ELISA, pH 6.0 for HC-D110L (antibody, V domains shown, CPE single point mutant of parent VH 48.6-HC-WT) VH: EVQLQQSGPELVKPGASVKISCKTSGYTFTEYTMHWMKQSHRKSLEWIGGINTNNGGTGYNQKFKGKATLTVDKSSSTAYMELRSLTSEDSAVYFCARGSLYSYGNSYFLYWGQGTLVTVSS VL: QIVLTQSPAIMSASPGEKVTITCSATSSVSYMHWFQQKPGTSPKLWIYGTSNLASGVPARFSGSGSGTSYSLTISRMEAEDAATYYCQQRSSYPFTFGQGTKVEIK and give only the class name.
Given back: high
